Numbers sourced from paper PMC11259064.

Reported pKd values follow for various substances
Target: LARP1 323-410 Q333A (Homo sapiens)
Construct: ITC Data Collection and Analysis for LARP1 323-410 Q333A; His-tag; made in house; host or cells: E. coli
Test: ITC of RNA ligands binding LARP1 323-410 Q333A
Conditions: Q333A mutant; LaM 30 (cell), RNA 300-600 (syringe)
pKd: −log10 of the molar value.
measured-quantity: pKd

- substance: "5´-APAPAPAPGPA-3´ [AAAAGA]"
  measured-quantity: "pKd"
  experimental-value: 5.00
- substance: "5´-APAPAPAPAPG-3´ [AAAAAG]"
  measured-quantity: "pKd"
  experimental-value: 4.72
- substance: "5´-UPUPUPUPUPU-3´ [UUUUUU]"
  measured-quantity: "pKd"
  experimental-value: 4.00
